- tgt: hGLP-1R (Homo sapiens)
- Sequence (P43220 24-463): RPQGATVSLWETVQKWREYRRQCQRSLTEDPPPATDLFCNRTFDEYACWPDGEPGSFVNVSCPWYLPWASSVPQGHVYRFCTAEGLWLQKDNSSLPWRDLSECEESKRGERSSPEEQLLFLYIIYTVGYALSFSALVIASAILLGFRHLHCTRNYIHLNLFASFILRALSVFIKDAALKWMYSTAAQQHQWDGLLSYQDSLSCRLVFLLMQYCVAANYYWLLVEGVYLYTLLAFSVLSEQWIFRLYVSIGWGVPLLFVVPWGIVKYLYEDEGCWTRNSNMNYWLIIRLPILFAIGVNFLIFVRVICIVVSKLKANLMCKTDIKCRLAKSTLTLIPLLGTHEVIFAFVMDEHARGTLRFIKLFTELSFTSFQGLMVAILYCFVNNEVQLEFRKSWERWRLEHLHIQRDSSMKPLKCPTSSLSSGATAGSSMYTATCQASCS
- assay-method-text: Functional cAMP activity in the presence of 1% HSA
- Type: cell-based
- assay-context: read-out: cAMP Rel EC50, hGLP-1R
Starred links: 1 amine or outer side, 2 acyl side, 3 side chain; linkers in the order of their positions; H or OH if unused. Non-standard residues stand in square brackets, D forms with d. Groups on a side chain read outwards from the residue. *: point of attachment. C20 diacid = O=C(O)CCCCCCCCCCCCCCCCCCC(=O)*; C18 diacid = O=C(O)CCCCCCCCCCCCCCCCC(=O)*; αMePhe(2-F) = C[C@](N)(Cc1ccccc1F)C(=O)O; γGlu = O=C(O)[C@H](CCC(=O)[*:2])N[*:1]; αMe4Pal = C[C@](N)(Cc1ccncc1)C(=O)O; αMeY = C[C@](N)(Cc1ccc(O)cc1)C(=O)O; Hyp = O=C(O)[C@@H]1C[C@@H](O)CN1; 4Pal = N[C@@H](Cc1ccncc1)C(=O)O; αMeL = CC(C)C[C@](C)(N)C(=O)O; αMeS = C[C@](N)(CO)C(=O)O; Orn = NCCC[C@H](N)C(=O)O; AEEA = NCCOCCOCC(=O)O; Aib = CC(C)(N)C(=O)O
// values below are reported pEC50
Scale for pEC50: -log10 of concentration given in mol/L; no unit attached.

Recorded results for 5 substances are shown here.
substance	tgt	measured-value
H-Y[Aib]QGTFTSDFS[Orn][αMeL]LDKK([AEEA-γGlu-C18 diacid])AQ[Aib]AFIEYLLE[Aib]GPSSGAPPPSGT-NH2 [Example 200]	hGLP-1R (Homo sapiens)	6.40
H-Y[Aib]QGTFTSDFS[Orn][αMeL]LDKK([AEEA-AEEA-γGlu-C18 diacid])AQ[Aib]AFIEYLLE[dA]GPSSGHPPPSGS-NH2 [Example 253]	hGLP-1R (Homo sapiens)	6.45
H-Y[Aib]QGTFTSDFS[Orn][αMeL]LDKK([AEEA-γGlu-C18 diacid])AQ[Aib]AFIEWLLEGGSSSGAPPPSGE-NH2 [Example 172]	hGLP-1R (Homo sapiens)	6.34
H-Y[Aib]QGTFTSDFS[Orn][αMeL]LDKK([AEEA-γGlu-C18 diacid])AQ[Aib]AFIEYLLEGGPSSGAP[Hyp]PGGS-NH2 [Example 236]	hGLP-1R (Homo sapiens)	6.58
H-Y[Aib]QGTFTSDYSI[αMeL]LDKQAAK([AEEA-AEEA-γGlu-C20 diacid])AFVEWLLA[Aib]GPSSGEPPPSEG-NH2 [Example 317]	hGLP-1R (Homo sapiens)	6.63

Shift focus to the following entry.
Quick note, pEC50 for H-Y[Aib]QGT[αMePhe(2-F)]TSD[4Pal][αMeS]I[αMeL]LD[Orn]K([γGlu-γGlu-C18 diacid])AQ[αMe4Pal]EFI[dE][αMeY]LIEGGPPS[Aib][Orn]PPP[Orn]GS-NH2 [Example 1226] landed at 7.46

====

- tgt: hGcgR (Homo sapiens)
- Sequence (P47871 26-477): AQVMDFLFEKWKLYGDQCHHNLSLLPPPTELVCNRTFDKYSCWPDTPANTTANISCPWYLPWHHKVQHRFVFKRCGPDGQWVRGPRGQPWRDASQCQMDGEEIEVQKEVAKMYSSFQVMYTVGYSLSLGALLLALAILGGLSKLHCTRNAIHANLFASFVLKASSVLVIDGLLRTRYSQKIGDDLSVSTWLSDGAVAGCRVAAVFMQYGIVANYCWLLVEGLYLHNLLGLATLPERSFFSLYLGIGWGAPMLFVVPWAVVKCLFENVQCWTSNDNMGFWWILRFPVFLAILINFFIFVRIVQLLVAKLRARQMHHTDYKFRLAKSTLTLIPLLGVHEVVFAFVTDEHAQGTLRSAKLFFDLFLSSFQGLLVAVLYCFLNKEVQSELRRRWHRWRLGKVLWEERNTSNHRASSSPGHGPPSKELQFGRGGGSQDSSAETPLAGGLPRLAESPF
- assay-method-text: Functional cAMP activation in the presence of 0.1% casein (no HSA)
- Format: cell-based
- assay-context: in the presence of 0.1% casein (no HSA); geometric mean; read-out: Relative cAMP EC50, hGcgR
Starred links: 1 amine or outer side, 2 acyl side, 3 side chain; linkers in the order of their positions; H or OH if unused. Non-standard residues stand in square brackets, D forms with d. Groups on a side chain read outwards from the residue. No end group written: not given here. *: point of attachment. C18 diacid = O=C(O)CCCCCCCCCCCCCCCCC(=O)*; Phe(4-CN) = N#Cc1ccc(C[C@H](N)C(=O)O)cc1; γGlu = O=C(O)[C@H](CCC(=O)[*:2])N[*:1]; αMe4Pal = C[C@](N)(Cc1ccncc1)C(=O)O; αMeY = C[C@](N)(Cc1ccc(O)cc1)C(=O)O; 4Pal = N[C@@H](Cc1ccncc1)C(=O)O; αMeL = CC(C)C[C@](C)(N)C(=O)O; Orn = NCCC[C@H](N)C(=O)O; AEEA = NCCOCCOCC(=O)O; Aib = CC(C)(N)C(=O)O
parameter: EC50 (nM)
The figure you give is taken to be in nM; do not add the unit.

Recorded results for 5 substances are shown here.
substance	tgt	EC50, nM
H-Y[Aib]QGTFTSD[Phe(4-CN)]S[Orn][αMeL]LDKK([AEEA-AEEA-γGlu-C18 diacid])AQ[Aib]AFIEYLLE[Aib]GPSSGAPPPSGS-NH2 [Example 178]	hGcgR (Homo sapiens)	7.29
H-Y[Aib]QGTFTSD[4Pal]SQ[αMeL]LDKK([γGlu-γGlu-C18 diacid])AQ[Aib]AFIE[αMeY]LLEGGPSSGAPPPSGSEE-NH2 [Example 945]	hGcgR (Homo sapiens)	18
H-Y[Aib]QGTFTSD[4Pal]SQ[αMeL]LDKK([γGlu-γGlu-C18 diacid])AQ[αMe4Pal]AFIE[αMe4Pal]LIE[Aib]GPSSGEPPPSGE-NH2 [Example 1123]	hGcgR (Homo sapiens)	5.53
H-Y[Aib]QGTFTSD[4Pal]SR[αMeL]LDKK([γGlu-γGlu-C18 diacid])AQ[αMe4Pal]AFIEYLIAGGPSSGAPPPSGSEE-NH2 [Example 962]	hGcgR (Homo sapiens)	3.13
H-Y[Aib]QGTFTSD[4Pal]SQ[αMeL]LD[Orn]K([γGlu-γGlu-C18 diacid])AQ[αMe4Pal]AFIEYLIAGGPSSGEPPPSGSE [Example 977]	hGcgR (Homo sapiens)	7.18

Shift focus to the following entry.
Quick note, EC50 for Y[Aib]QGTFTSDFS[Orn][αMeL]LDKK([AEEA-γGlu-C18 diacid])AQ[Aib]AFIEWLLEGGHSSGEPPPSGE-NH2 [Example 124] landed at 2.92

====

- tgt: hGcgR (Homo sapiens)
- assay-method-text: Functional cAMP activation in the presence of 0.1% casein (no HSA);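 as to Relative cAMP EC50, hGcgR: intracellular cAMP rise after 30 min at 37 °C, read by HTRF against a cAMP standard curve, scaled from buffer only (0%) to maximal control ligand response (100%)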
- Format: cell-based
- assay-context: in the presence of 0.1% casein (no HSA); geometric mean; read-out: Relative cAMP EC50, hGcgR
Starred links: 1 amine or outer side, 2 acyl side, 3 side chain; linkers in the order of their positions; H or OH if unused. Non-standard residues stand in square brackets, D forms with d. Groups on a side chain read outwards from the residue. No end group written: not given here. *: point of attachment. C18 diacid = O=C(O)CCCCCCCCCCCCCCCCC(=O)*; γGlu = O=C(O)[C@H](CCC(=O)[*:2])N[*:1]; αMe4Pal = C[C@](N)(Cc1ccncc1)C(=O)O; 4Pal = N[C@@H](Cc1ccncc1)C(=O)O; αMeL = CC(C)C[C@](C)(N)C(=O)O; Orn = NCCC[C@H](N)C(=O)O; AEEA = NCCOCCOCC(=O)O; Aib = CC(C)(N)C(=O)O
// values below are reported EC50
A complete answer gives the number followed by the unit.

> print(dat)
                                  substance  measured.value
1  H-Y[Aib]QGTFTSDFS[Orn][αMeL]LDKK([AEEA-γGlu-C18 diacid])AQ[Aib]AFIEWLLEGGTSSGAPPPSGT-NH2 [Example 177]         4.22 nM

I looked up Y[Aib]QGTFTSD[4Pal]SQ[αMeL]LDKK([γGlu-γGlu-C18 diacid])AQ[αMe4Pal]AFIE[αMe4Pal]LIE[Aib]GPSSGAPPPSGTE-NH2 [Example 1118] and its EC50 for hGcgR (Homo sapiens) was 6.52 nM

I looked up H-Y[Aib]QGTFTSDFS[Orn][αMeL]LDKK([AEEA-γGlu-C18 diacid])AQ[Aib]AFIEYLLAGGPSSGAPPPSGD-NH2 [Example 85] and its EC50 for hGcgR (Homo sapiens) was 7.63 nM

====

- tgt: hGIPR (Homo sapiens, UniProt P48546)
- Sequence (P48546 22-466): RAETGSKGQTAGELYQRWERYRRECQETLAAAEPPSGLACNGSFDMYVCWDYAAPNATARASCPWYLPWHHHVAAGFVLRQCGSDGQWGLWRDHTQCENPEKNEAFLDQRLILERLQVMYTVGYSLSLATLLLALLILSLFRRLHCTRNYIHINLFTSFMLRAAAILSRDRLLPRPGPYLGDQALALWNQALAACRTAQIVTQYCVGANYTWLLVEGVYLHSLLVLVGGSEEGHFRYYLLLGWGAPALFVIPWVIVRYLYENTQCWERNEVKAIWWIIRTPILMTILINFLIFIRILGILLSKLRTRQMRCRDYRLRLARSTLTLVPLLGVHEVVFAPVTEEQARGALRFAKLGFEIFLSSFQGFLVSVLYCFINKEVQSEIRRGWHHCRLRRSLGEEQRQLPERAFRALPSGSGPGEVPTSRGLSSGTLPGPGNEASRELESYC
- assay-method-text: Functional cAMP activation in the presence of 0.1% casein (no HSA);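 as to Relative cAMP EC50, hGIPR: intracellular cAMP rise after 30 min at 37 °C read by HTRF against a standard curve, scaled between buffer alone (0%) and top control ligand concentration (100%), four-parameter fit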
- Format: cell-based
- assay-context: in the presence of 0.1% casein (no HSA); geometric mean; read-out: Relative cAMP EC50, hGIPR
Starred links: 1 amine or outer side, 2 acyl side, 3 side chain; linkers in the order of their positions; H or OH if unused. Non-standard residues stand in square brackets, D forms with d. Groups on a side chain read outwards from the residue. *: point of attachment. C20 diacid = O=C(O)CCCCCCCCCCCCCCCCCCC(=O)*; C18 diacid = O=C(O)CCCCCCCCCCCCCCCCC(=O)*; αMePhe(2-F) = C[C@](N)(Cc1ccccc1F)C(=O)O; γGlu = O=C(O)[C@H](CCC(=O)[*:2])N[*:1]; αMe4Pal = C[C@](N)(Cc1ccncc1)C(=O)O; αMeY = C[C@](N)(Cc1ccc(O)cc1)C(=O)O; 4Pal = N[C@@H](Cc1ccncc1)C(=O)O; αMeL = CC(C)C[C@](C)(N)C(=O)O; αMeS = C[C@](N)(CO)C(=O)O; Orn = NCCC[C@H](N)C(=O)O; AEEA = NCCOCCOCC(=O)O; Aib = CC(C)(N)C(=O)O
parameter: EC50 (pM)
The figure you give is taken to be in pM; do not add the unit.

substance	EC50 (pM)
H-Y[Aib]QGTFTSDFS[Orn][αMeL]LDKK([AEEA-γGlu-C18 diacid])AQ[Aib]AFIEYLIE[Aib]SPSSGAPPPSGS-NH2 [Example 804]	75.1
H-Y[Aib]QGT[αMePhe(2-F)]TSD[4Pal][αMeS]I[αMeL]LD[Orn]K([AEEA-γGlu-C18 diacid])AQ[αMe4Pal]EFI[dE][αMeY]LVEGGPSSGEPPPTGE-NH2 [Example 1153]	10.9

Shift focus to the following entry.
Quick note, EC50 for H-Y[Aib]QGT[αMePhe(2-F)]TSDYSKLLDKIAQK([AEEA-γGlu-C20 diacid])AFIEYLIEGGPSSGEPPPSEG-NH2 [Example 304] landed at 127
